Kindly state kon for each of the entries shown.
Target: recombinant human Factor IX (rhFIX, Genetics Institute) (human) (UniProt P00740)
Sequence (P00740 47-461 limits assumed): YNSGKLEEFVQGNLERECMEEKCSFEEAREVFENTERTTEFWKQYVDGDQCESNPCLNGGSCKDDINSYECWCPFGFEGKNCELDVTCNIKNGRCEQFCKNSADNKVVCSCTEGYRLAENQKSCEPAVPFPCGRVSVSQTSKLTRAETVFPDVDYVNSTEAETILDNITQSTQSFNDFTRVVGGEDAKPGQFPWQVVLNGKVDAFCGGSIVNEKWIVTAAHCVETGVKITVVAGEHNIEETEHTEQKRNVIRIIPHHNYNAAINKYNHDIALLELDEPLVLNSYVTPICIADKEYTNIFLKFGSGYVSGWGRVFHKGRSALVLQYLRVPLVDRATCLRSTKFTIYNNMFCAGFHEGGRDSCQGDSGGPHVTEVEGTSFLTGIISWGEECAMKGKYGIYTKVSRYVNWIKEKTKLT
Test: BIAcore kinetics of Factor IX binding
One number for each entry, in M⁻¹ s⁻¹.

binder	numeric-value
humanized anti-Factor IX monoclonal antibody SB 249415 (antibody, V domains shown) VH: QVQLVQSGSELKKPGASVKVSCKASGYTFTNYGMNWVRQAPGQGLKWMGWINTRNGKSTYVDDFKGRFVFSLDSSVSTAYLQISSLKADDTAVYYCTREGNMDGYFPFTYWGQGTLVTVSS VL: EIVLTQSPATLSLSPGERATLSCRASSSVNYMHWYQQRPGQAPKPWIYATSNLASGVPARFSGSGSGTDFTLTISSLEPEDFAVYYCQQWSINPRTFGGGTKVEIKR	750000

Please find the next binder below.
Query block: Quote kon reported for humanized anti-Factor IX monoclonal antibody SB 257732 (antibody, V domains shown) VH: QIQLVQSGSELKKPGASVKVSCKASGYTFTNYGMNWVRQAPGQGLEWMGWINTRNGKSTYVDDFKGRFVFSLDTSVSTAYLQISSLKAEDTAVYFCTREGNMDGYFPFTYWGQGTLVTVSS VL: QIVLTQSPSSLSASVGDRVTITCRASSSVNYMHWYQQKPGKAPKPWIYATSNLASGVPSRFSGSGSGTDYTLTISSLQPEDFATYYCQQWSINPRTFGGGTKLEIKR please.
Result block: 1.1e+06
